System: Trachea
PROTOCOL TEXT: Induction of bronchodilation in guinea pig tracheal rings assessed as reduction in histamine-induced contractions
Assay type: functional, tissue-based
RECORDED CONDITIONS: Cavia porcellus

COMPOUND | UNIT TEXT | IC50
COc1nc2c(c(-c3ccc(Cl)cc3Cl)c1C#N)-c1ccccc1CC2 | µM | 6.36
COc1nc(-c2ccc(F)cc2)cc(-c2ccc(Cl)cc2Cl)c1C#N | µM | 7.43
COc1nc(-c2ccc(C)cc2)cc(-c2ccc(Cl)cc2Cl)c1C#N | µM | 10.6
CCOc1nc2c(c(-c3ccc(Cl)cc3Cl)c1C#N)CCCc1ccccc1-2 | µM | 13
COc1nc2c(c(-c3ccc(Cl)cc3Cl)c1C#N)-c1ccccc1C2 | µM | 9.11
Cn1c(=O)c2nc[nH]c2n(C)c1=O [THEOPHYLLINE] | µM | 11.6
COc1nc(-c2ccc3ccccc3c2)cc(-c2ccc(Cl)cc2Cl)c1C#N | µM | 9.4
COc1nc2c(c(-c3ccc(Cl)cc3Cl)c1C#N)COc1ccccc1-2 | µM | 6.11
COc1nc(-c2cccnc2)cc(-c2ccc(Cl)cc2Cl)c1C#N | µM | 17.1
